- experimentDescription: in vivo
- Design: species or system baboons (P. Anubis)
- measurementConditions: baboon (P. Anubis), iv, 10 mg

[
  {
    "compound": "CC[C@H](C)[C@H](NC(=O)CNC)C(=O)N[C@H]1CSSC[C@@H](C(=O)N(C)[C@H](C(N)=O)[C@@H](C)CC)NC(=O)[C@H](CCCNC(=N)N)NC(=O)[C@H](Cc2c[nH]cn2)NC(=O)[C@H](C)NC(=O)CN(C)C(=O)[C@H](Cc2c[nH]c3ccccc23)NC(=O)[C@H](CC(=O)O)NC(=O)[C@H](CCC(N)=O)NC(=O)[C@H](Cc2cn(C)c3ccccc23)NC(=O)[C@H](C(C)C)NC1=O [peptide 3]",
    "half-life [h]": 5
  }
]

###

- system: C3b (Homo sapiens)
- Construct: Biotinylated C3b was captured site-specifically on a streptavidin chip
- Sequence (P01024 23-667 limits assumed): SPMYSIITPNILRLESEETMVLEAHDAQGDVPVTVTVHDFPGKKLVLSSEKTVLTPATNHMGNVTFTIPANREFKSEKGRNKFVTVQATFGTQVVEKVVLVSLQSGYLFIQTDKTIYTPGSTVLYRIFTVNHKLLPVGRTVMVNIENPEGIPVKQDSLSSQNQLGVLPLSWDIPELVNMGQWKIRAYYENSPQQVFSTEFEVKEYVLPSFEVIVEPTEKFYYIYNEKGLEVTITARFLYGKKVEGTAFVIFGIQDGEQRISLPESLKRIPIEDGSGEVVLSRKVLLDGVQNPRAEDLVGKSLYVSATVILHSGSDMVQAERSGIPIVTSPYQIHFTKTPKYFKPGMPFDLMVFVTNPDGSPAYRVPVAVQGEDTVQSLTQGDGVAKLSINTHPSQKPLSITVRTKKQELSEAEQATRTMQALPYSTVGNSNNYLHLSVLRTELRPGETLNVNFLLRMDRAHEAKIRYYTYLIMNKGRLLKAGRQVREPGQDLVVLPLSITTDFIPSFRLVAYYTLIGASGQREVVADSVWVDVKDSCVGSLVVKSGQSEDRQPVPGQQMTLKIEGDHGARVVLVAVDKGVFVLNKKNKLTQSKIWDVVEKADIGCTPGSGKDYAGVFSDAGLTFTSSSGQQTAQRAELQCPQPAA
- Sequence (P01024 749-1663 partner limits assumed): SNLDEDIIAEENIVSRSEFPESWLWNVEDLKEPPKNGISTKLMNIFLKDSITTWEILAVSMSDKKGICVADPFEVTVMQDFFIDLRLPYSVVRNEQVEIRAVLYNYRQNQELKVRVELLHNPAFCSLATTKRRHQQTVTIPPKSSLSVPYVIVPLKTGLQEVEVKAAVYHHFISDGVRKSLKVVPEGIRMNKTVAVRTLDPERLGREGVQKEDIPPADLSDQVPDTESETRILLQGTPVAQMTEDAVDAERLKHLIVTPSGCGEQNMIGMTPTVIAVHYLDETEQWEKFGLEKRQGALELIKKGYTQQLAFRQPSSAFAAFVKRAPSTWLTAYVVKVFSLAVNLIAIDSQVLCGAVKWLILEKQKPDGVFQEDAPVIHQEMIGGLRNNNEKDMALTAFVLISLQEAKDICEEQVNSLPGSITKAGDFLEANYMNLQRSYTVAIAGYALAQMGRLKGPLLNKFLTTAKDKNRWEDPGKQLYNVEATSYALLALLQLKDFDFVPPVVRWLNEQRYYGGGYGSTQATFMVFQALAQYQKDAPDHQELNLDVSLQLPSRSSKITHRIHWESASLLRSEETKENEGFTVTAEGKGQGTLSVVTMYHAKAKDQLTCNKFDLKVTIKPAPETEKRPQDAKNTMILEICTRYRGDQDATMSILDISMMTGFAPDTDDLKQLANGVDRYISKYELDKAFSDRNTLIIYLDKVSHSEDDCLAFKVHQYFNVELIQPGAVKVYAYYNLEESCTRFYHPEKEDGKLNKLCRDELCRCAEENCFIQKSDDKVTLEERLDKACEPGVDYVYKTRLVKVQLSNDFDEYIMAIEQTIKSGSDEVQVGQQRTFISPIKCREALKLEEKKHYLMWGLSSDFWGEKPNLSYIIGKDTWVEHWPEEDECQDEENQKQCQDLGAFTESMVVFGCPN
- experimentDescription: SPR kinetic analysis of binding to immobilized C3b (Biacore, single cycle kinetics)
- measurementConditions: Table 1, N-terminal analogs
Bridge positions count the residues as written; N and C are the ends. Square brackets hold non-standard residues; d marks the D form. Peptide text beside a SMILES is read from it. Trp(1-Me) = Cn1cc(C[C@H](N)C(=O)O)c2ccccc21; NMeI = CC[C@H](C)[C@H](NC)C(=O)O; Sar = CNCC(=O)O
# ka: association rate listing for each entry below
property: ka: association rate

[
  {
    "compound": "CC[C@H](C)[C@H](NC(=O)CNC)C(=O)N[C@H]1CSSC[C@@H](C(=O)N(C)[C@H](C(N)=O)[C@@H](C)CC)NC(=O)[C@H](CCCNC(=N)N)NC(=O)[C@H](Cc2c[nH]cn2)NC(=O)[C@H](C)NC(=O)CN(C)C(=O)[C@H](Cc2c[nH]c3ccccc23)NC(=O)[C@H](CC(=O)O)NC(=O)[C@H](CCC(N)=O)NC(=O)[C@H](Cc2cn(C)c3ccccc23)NC(=O)[C@H](C(C)C)NC1=O [peptide 3]",
    "result": "1.9 ± 0.5 10^6/Ms"
  },
  {
    "compound": "CC[C@H](C)[C@H](NC(=O)[C@@H](N)Cc1ccccc1)C(=O)N[C@H]1CSSC[C@@H](C(=O)N(C)[C@H](C(N)=O)[C@@H](C)CC)NC(=O)[C@H](CCCNC(=N)N)NC(=O)[C@H](Cc2c[nH]cn2)NC(=O)[C@H](C)NC(=O)CN(C)C(=O)[C@H](Cc2c[nH]c3ccccc23)NC(=O)[C@H](CC(=O)O)NC(=O)[C@H](CCC(N)=O)NC(=O)[C@H](Cc2cn(C)c3ccccc23)NC(=O)[C@H](C(C)C)NC1=O [compound 5] (H-FICV[Trp(1-Me)]QDW[Sar]AHRC[NMeI]-NH2; disulfide 3-13)",
    "result": "2.1 ± 0.4 10^6/Ms"
  },
  {
    "compound": "CC[C@H](C)[C@H](NC(=O)CN)C(=O)N[C@H]1CSSC[C@@H](C(=O)N(C)[C@H](C(N)=O)[C@@H](C)CC)NC(=O)[C@H](CCCNC(=N)N)NC(=O)[C@H](Cc2c[nH]cn2)NC(=O)[C@H](C)NC(=O)CN(C)C(=O)[C@H](Cc2c[nH]c3ccccc23)NC(=O)[C@H](CC(=O)O)NC(=O)[C@H](CCC(N)=O)NC(=O)[C@H](Cc2cn(C)c3ccccc23)NC(=O)[C@H](C(C)C)NC1=O [peptide 2] (H-GICV[Trp(1-Me)]QDW[Sar]AHRC[NMeI]-NH2; disulfide 3-13)",
    "result": "1.2 ± 0.3 10^6/Ms"
  },
  {
    "compound": "CC[C@H](C)[C@H](NC(=O)[C@H](N)Cc1ccc(O)cc1)C(=O)N[C@H]1CSSC[C@@H](C(=O)N(C)[C@H](C(N)=O)[C@@H](C)CC)NC(=O)[C@H](CCCNC(=N)N)NC(=O)[C@H](Cc2c[nH]cn2)NC(=O)[C@H](C)NC(=O)CN(C)C(=O)[C@H](Cc2c[nH]c3ccccc23)NC(=O)[C@H](CC(=O)O)NC(=O)[C@H](CCC(N)=O)NC(=O)[C@H](Cc2cn(C)c3ccccc23)NC(=O)[C@H](C(C)C)NC1=O [peptide 14]",
    "result": "2.8 ± 0.5 10^6/Ms"
  },
  {
    "compound": "CC[C@H](C)[C@H](NC(=O)[C@@H](NC)C(C)C)C(=O)N[C@H]1CSSC[C@@H](C(=O)N(C)[C@H](C(N)=O)[C@@H](C)CC)NC(=O)[C@H](CCCNC(=N)N)NC(=O)[C@H](Cc2c[nH]cn2)NC(=O)[C@H](C)NC(=O)CN(C)C(=O)[C@H](Cc2c[nH]c3ccccc23)NC(=O)[C@H](CC(=O)O)NC(=O)[C@H](CCC(N)=O)NC(=O)[C@H](Cc2cn(C)c3ccccc23)NC(=O)[C@H](C(C)C)NC1=O",
    "result": "1.8 ± 0.3 10^6/Ms"
  }
]
